Each recorded value in this set is attributed to PubChem BioAssay AID1159580.

# TEST_SUMMARY: chemical genetic growth profiling, strain panel (AID 1159580);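 also: tested at 20 µM; growth read once vehicle control cultures reached saturation at 30 °C; 1 = growth at the plate median or of vehicle wells; lower values mean less growth of the strain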
# RUN_CONDITIONS: S. cerevisiae deletion strains, growth OD, locus YFL029C, strain CAK1
About 2,000 (36%) of roughly 5,500 compounds were called active. Another 18% or so got no clear call; they are omitted. Rule as the data show it: active = normalized growth mostly below about 0.91 (no sharp cut-off); inconclusive = no clear call, values can overlap the other calls; inactive = mostly above about 0.92. Some of the results follow.
Just give me one of these, please: 1.0 (active), 0.0 (inactive)

These recorded examples may help you get a feel for the data.
MOLECULE | CATEGORY
CS/C(Nc1cccc(C(F)(F)F)c1)=C(/C#N)S(=O)(=O)c1ccc(Cl)cc1 | 0.0
O=c1c(-c2ccccc2)c(O)c2cccc3c4c(n1c23)CCCC4 | 0.0
CCOC(=O)c1cnc2c(c(C)nn2C)c1Sc1nnc(SC)s1 | 1.0
O=C(c1cc2c(s1)-c1ccccc1CC2)N1CCN(Cc2ccccc2)CC1 | 0.0

Exercise: So what was the verdict on S=C(N/N=C\c1cccs1)NC1CC2CCC1C2 (stereo not given) in this test?
Solution: 0.0

Exercise: What classification did OC(CSc1ccccc1)CN1CCN(c2nc(-c3ccccc3)ns2)CC1 (stereo not given) end up with in this test?
Solution: 0.0

Exercise: Recorded test outcome, item CC(=O)c1ccccc1C(=O)c1ccc(C(C)(C)C)cc1
Solution: 0.0

Exercise: Identify the outcome logged in this assay for the molecule shown: Cc1ccc2nc(-c3ccc([N+](=O)[O-])o3)oc(=O)c2c1
Solution: 1.0

Exercise: Assay outcome for O=C(NNC(=S)Nc1ccc(Cl)cc1)c1ncc(C(F)(F)F)cc1Cl : what was it?
Solution: 0.0

Exercise: Just curious, what result did CSc1nnc(COc2ccc(C)c3c2CCC3)n1-c1ccccc1 get here?
Solution: 0.0

Exercise: For N#C/C(=N/Nc1cccc(C(F)(F)F)c1)C(=O)c1csc(-c2cccnc2)n1 , what call appears in the results of this test?
Solution: 0.0

Exercise: What classification did Cn1nc(-c2ccccc2)c(O)c(N=Nc2ccccc2)c1=O end up with in this test?
Solution: 0.0

Exercise: Check the results log: what was the call for O=c1c(-c2ccccc2)c(O)c2cccc3c4ccccc4n1c23 ?
Solution: 1.0

Exercise: Hey, what did the test say about C/C(=N/NC(=O)c1ccc(C(C)(C)C)cc1)c1ccccc1O ?
Solution: 0.0

Exercise: In this assay, the call recorded for CN1c2ccccc2C(C)(C)C12C=Cc1cc(O)ccc1O2 (stereo not given) was what?
Solution: 0.0
